nucOX: recorded values
system: nuOXPHOS transcripts; format: cell-based, mouse
The answer should be a number; do not append a unit.

Consider the worked cases shown below.
COC(=O)[C@H](c1ccccc1Cl)N1CCc2sccc2C1 [clopidogrel] :: −1.328
C[N+](C)(C)CC(=O)O [betaine] :: 0.354
CC(N/C(=N\C#N)Nc1ccncc1)C(C)(C)C (stereo not shown) [pinacidil] :: 0.038

Incoming: Would you kindly share the measured nucOX for C[N+]12CCC(CC1)C(OC(=O)C(O)(c1ccccc1)c1ccccc1)C2 (stereo not shown) [clidinium] ?
Outgoing: −0.202

Incoming: Would you kindly share the measured nucOX for OC(c1cc(C(F)(F)F)nc2c(C(F)(F)F)cccc12)C1CCCCN1 (stereo not shown) [mefloquine] ?
Outgoing: −0.073

Incoming: Would you kindly share the measured nucOX for CN1C(C)(C)CCCC1(C)C [pempidine] ?
Outgoing: −0.425

----------
tested on: reactive oxygen species; type: cell-based, mouse; details: 20 μM; composite Z-score vs DMSO
ROS of -0.3 or higher: Met. Under -0.3: Not met.

Example entries begin here.
CC(=O)OCC(COC(C)=O)OC(C)=O [triacetin] :: Met
Nc1ccc(C(=O)NCC(=O)O)cc1 [aminohippuric acid] :: Not met
OC(c1cc(C(F)(F)F)nc2c(C(F)(F)F)cccc12)C1CCCCN1 (centres unmarked) [mefloquine] :: Not met

Incoming: Has NC(=O)c1cc([N+](=O)[O-])cc([N+](=O)[O-])c1 [nitromide] a recorded ROS greater than or equal to -0.3?
Outgoing: Met

Incoming: Has CCN(CC)CCNC(=O)c1cc(S(C)(=O)=O)ccc1OC [tiapride] a recorded ROS greater than or equal to -0.3?
Outgoing: Not met

----------
test system: reactive oxygen species; format: cell-based, mouse; details: Conc 20 μM; normalized score vs mock-treated (DMSO) wells
Experimental Readout: ROS (composite Z-score)
The answer should be a number; do not append a unit.

Consider the worked cases shown below.
COc1cc(/C=C/CO)ccc1O :: −0.450
C=CC(C)(O)CCC=C(C)C (single isomer, unassigned; (+)) [(+)-linalool] :: 0.481
CC12CCC(O)CC1CCc1ccccc12 (stereo not shown) :: 0.477

Moving on to the next compound.
Incoming: Would you kindly share the measured ROS (composite Z-score) for COC1=C(OC)C(=O)C(C/C=C(\C)CC/C=C(\C)CC/C=C(\C)CC/C=C(\C)CC/C=C(\C)CC/C=C(\C)CC/C=C(\C)CC/C=C(\C)CC/C=C(\C)CCC=C(C)C)=C(C)C1=O ?
Outgoing: 1.179

----------
test system: OXPHOS gene expression; assay type: cell-based, mouse; conditions: composite Z-score vs DMSO; Conc 20 μM
Just a reminder that ties go to F: only GE-HTS strictly below -0.9 counts as T.

Example entries begin here.
COC1=CC(=O)C(C(=O)c2ccccc2)=CC1=O [2-benzoyl-5-methoxybenzoquinone] :: F
OC[C@H]1O[C@@H](n2cnc3c(NCc4ccco4)ncnc32)[C@H](O)[C@@H]1O [kinetin riboside] :: F
CC[C@H]1OC(=O)[C@H](C)[C@@H](O[C@H]2C[C@@](C)(OC)[C@@H](O)[C@H](C)O2)[C@H](C)[C@@H](O[C@@H]2O[C@H](C)C[C@H](N(C)C)[C@H]2O)[C@](C)(OC)C[C@@H](C)C(=O)[C@H](C)[C@@H](O)[C@]1(C)O [clarithromycin] :: T

Incoming: Below -0.9 on GE-HTS? Entry COc1cc(OC)c2c(=O)c(-c3ccccc3)coc2c1 [5,7-dimethoxyisoflavone]
Outgoing: F

Incoming: Below -0.9 on GE-HTS? Entry O=C(O)c1cc(O)c2c(c1)[C@H]([C@H]1c3cc(C(=O)O)cc(O)c3C(=O)c3c(O[C@@H]4O[C@H](CO)[C@@H](O)[C@H](O)[C@H]4O)cccc31)c1cccc(O[C@@H]3O[C@H](CO)[C@@H](O)[C@H](O)[C@H]3O)c1C2=O [sennoside A]
Outgoing: T

Incoming: Below -0.9 on GE-HTS? Entry CC(C)=CCc1c(O)cc2occ(-c3ccc4c(c3)OCO4)c(=O)c2c1O [derrubone]
Outgoing: F

----------
system: reactive oxygen species; type: cell-based, mouse; details: composite Z-score vs DMSO wells; Conc 20 μM
Experimental Readout: ROS
The answer should be a number; do not append a unit.

Cc1onc(-c2c(Cl)cccc2Cl)c1C(=O)N[C@@H]1C(=O)N2[C@@H]1SC(C)(C)[C@@H]2C(=O)O [dicloxacillin sodium] :: −0.070
C[C@]12CC[C@@H]3c4ccc(O)cc4CC[C@H]3[C@@H]1CC[C@@H]2OC(=O)CCC1CCCC1 [estradiol cypionate] :: −0.010
CCCC(=O)Nc1ccc(OCC(O)CNC(C)C)c(C(C)=O)c1 (stereo not shown) :: 1.061

Moving on to the next molecule.
Incoming: Would you kindly share the measured ROS for CCOc1ccc(NC(C)=O)cc1 ?
Outgoing: 1.491

----------
cyt c: recorded values
system: cytochrome c; assay type: cell-based, mouse; conditions: composite Z-score vs DMSO; Conc 20 μM

CCOC(=O)c1c(C)cc(OC)cc1O [ethyl everninate] :: 0.122
COCCc1ccc(OCC(O)CNC(C)C)cc1 (stereo not shown) [metoprolol, reference compound] :: 0.596
COc1ccc2c(c1)CC[C@@H]1[C@@H]2CC[C@]2(C)[C@@H](O)CC[C@@H]12 :: 1.670
N[C@H]1C(O)O[C@H](CO)[C@H](O)[C@@H]1O[C@@H]1O[C@H](C(=O)O)[C@@H](O)[C@H](O)[C@H]1O (stereo partly shown) :: 0.040
O=C1CC[C@]23/C=C/C(=O)NCCCCNCCCNC(=O)/C=C/c4ccc(c2c4)O[C@@H]3C1 :: 0.685
CC(N/C(=N\C#N)Nc1ccncc1)C(C)(C)C (stereo not shown) :: 1.030
CC(=O)Nc1c(I)cc(I)c(C(=O)O)c1I :: −1.416
COc1cc2c(cc1OC)[C@@H]1C(=O)c3ccc4c(c3O[C@@H]1CO2)CC(C(C)C)O4 (stereo partly shown) [dihydrorotenone, reference compound] :: −3.153
CCc1ccc2c(O)c3c(cc2c1C(=O)OC)C(=O)c1c(O)ccc(O)c1C3=O [bisanhydrorutilantinone] :: 0.148
CCNC(=O)CC[C@H](N)C(=O)O :: 0.244

Incoming: Would you kindly share the measured cyt c for CC1=C(CCC(=O)O)c2cc3[nH]c(cc4nc(cc5[nH]c(cc1n2)c(C)c5C(C)O)C(C)=C4C(C)O)c(C)c3CCC(=O)O (stereo not shown) ?
Outgoing: 0.324

Incoming: Would you kindly share the measured cyt c for O=[N+]([O-])NC1=NCCN1Cc1ccc(Cl)nc1 ?
Outgoing: 0.607

Incoming: Would you kindly share the measured cyt c for Cc1cc(O)c(C=O)c(O)c1C(=O)O ?
Outgoing: 0.631

Incoming: Would you kindly share the measured cyt c for CN1CCc2cc3c(cc2[C@H]1[C@@H]1OC(=O)c2c1ccc1c2OCO1)OCO3 [(+)-bicuculline] ?
Outgoing: −0.116

Incoming: Would you kindly share the measured cyt c for C[C@]12CC[C@H](O)C[C@@H]1CC[C@@H]1[C@@H]2CC[C@]2(C)[C@@H](O)CC[C@@H]12 ?
Outgoing: 0.280

----------
nucOX: recorded values
tested on: nuOXPHOS transcripts; format: cell-based, mouse; conditions: composite Z-score vs DMSO; Conc 20 μM
The answer should be a number; do not append a unit.

Incoming: // fetch nuOXPHOS transcripts nucOX for NCCCCCN
Outgoing: −0.667

Incoming: // fetch nuOXPHOS transcripts nucOX for Cn1c(=O)[nH]c(=O)c2[nH]cnc21
Outgoing: −1.286

Incoming: // fetch nuOXPHOS transcripts nucOX for COc1cc2c(cc1OC)[C@@H]1C(=O)c3c(O)cc4c(c3O[C@@H]1CO2)C=CC(C)(C)O4 [alpha-toxicarol, reference compound]
Outgoing: 0.124

Incoming: // fetch nuOXPHOS transcripts nucOX for CC(=O)[C@@]1(O)CC[C@H]2[C@@H]3C=C(Cl)C4=CC(=O)[C@@H]5C[C@@H]5[C@]4(C)[C@H]3CC[C@@]21C
Outgoing: −0.461

----------
tested on: nuOXPHOS transcripts; type: cell-based, mouse; conditions: composite Z-score vs DMSO; Conc 20 μM
Experimental Readout: nucOX
The answer should be a number; do not append a unit.

Incoming: Would you kindly share the measured nucOX for C[C@]12CCC(=O)C(O)=C1CC[C@@H]1[C@@H]2CC[C@]2(C)C(=O)CC[C@@H]12 ?
Outgoing: 0.050

Incoming: Would you kindly share the measured nucOX for O=[N+]([O-])NC1=NCCN1Cc1ccc(Cl)nc1 ?
Outgoing: −0.214

Incoming: Would you kindly share the measured nucOX for O=C(O)c1cc(O)c2c(c1)[C@H]([C@H]1c3cc(C(=O)O)cc(O)c3C(=O)c3c(O[C@@H]4O[C@H](CO)[C@@H](O)[C@H](O)[C@H]4O)cccc31)c1cccc(O[C@@H]3O[C@H](CO)[C@@H](O)[C@H](O)[C@H]3O)c1C2=O [sennoside A] ?
Outgoing: −1.093

Incoming: Would you kindly share the measured nucOX for COC1=C[C@@H]2[C@@H]3Cc4ccc(OC)c(O)c4[C@]2(CCN3C)CC1=O ?
Outgoing: −0.565

Incoming: Would you kindly share the measured nucOX for O[C@H]1[C@H](O)[C@@H](O)C2OC[C@H]1O2 [anhydroglucose] ?
Outgoing: 0.322

Incoming: Would you kindly share the measured nucOX for CO[C@H]1C[C@H](O[C@H]2[C@H](C)[C@@H](O[C@@H]3O[C@H](C)C[C@H](N(C)C)[C@H]3OC(C)=O)[C@@H](C)C[C@@]3(CO3)C(=O)[C@H](C)[C@@H](OC(C)=O)[C@@H](C)[C@@H](C)OC(=O)[C@@H]2C)O[C@@H](C)[C@@H]1OC(C)=O ?
Outgoing: −1.277
